Hey, just so you know, these numbers are from patent US10392630B2.

Target: Amaranthus mutant PPO (AMARE) (Amaranthus tuberculatus, UniProt Q0NZW9, F420V/R128A)
Sequence (Q0NZW9 1-534 R128A/F420V): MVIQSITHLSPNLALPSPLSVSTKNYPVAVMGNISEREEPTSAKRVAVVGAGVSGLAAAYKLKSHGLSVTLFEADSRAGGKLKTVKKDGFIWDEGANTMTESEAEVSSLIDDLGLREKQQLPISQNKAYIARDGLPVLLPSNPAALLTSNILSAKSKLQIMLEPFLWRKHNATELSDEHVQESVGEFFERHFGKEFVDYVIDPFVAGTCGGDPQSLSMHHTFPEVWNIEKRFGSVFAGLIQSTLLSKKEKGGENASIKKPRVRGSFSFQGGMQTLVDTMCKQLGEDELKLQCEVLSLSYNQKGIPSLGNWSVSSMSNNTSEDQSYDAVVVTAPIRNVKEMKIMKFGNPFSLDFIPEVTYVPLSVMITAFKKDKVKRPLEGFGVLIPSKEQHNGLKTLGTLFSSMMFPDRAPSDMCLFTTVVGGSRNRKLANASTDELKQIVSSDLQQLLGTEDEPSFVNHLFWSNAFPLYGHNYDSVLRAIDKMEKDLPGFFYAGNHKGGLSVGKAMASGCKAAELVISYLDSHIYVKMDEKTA
Assay: biochemical
TEST READOUT: pIC50
Scale explanation: pIC50 corresponds to minus log10 of a concentration expressed in moles per litre.

Recorded pIC50 of C#CCN1C(=O)C(F)(F)Oc2cc(F)c(-n3c(=O)n(C)c(=S)n(C)c3=O)cc21 [BAS 850H] , please.
7.60

---

Biological target: Amaranthus mutant PPO (AMARE) (Amaranthus tuberculatus, UniProt Q0NZW9, F420V/R128I)
Sequence (Q0NZW9 1-534 R128I/F420V): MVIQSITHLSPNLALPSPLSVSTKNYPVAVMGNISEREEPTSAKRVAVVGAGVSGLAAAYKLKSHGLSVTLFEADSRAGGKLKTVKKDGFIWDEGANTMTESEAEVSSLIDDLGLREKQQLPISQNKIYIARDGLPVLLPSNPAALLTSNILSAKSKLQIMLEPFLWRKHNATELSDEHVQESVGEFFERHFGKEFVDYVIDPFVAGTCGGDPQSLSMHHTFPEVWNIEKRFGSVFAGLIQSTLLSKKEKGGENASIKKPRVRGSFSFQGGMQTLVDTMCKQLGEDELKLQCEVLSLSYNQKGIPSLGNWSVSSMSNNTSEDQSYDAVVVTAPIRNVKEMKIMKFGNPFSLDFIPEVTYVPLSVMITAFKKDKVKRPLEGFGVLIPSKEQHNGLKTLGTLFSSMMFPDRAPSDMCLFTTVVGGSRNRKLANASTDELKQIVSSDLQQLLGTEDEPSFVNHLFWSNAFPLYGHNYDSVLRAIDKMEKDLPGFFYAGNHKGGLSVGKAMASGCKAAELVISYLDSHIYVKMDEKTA
Test: biochemical
TEST READOUT: IC50

Recorded IC50 of C#CCN1C(=O)C(F)(F)Oc2cc(F)c(-n3c(=O)n(C)c(=S)n(C)c3=O)cc21 [BAS 850H] , please.
424 nM

Can you check CC(C)N(C)S(=O)(=O)NC(=O)c1cc(-n2c(=O)cc(C(F)(F)F)n(C)c2=O)c(F)cc1Cl [saflufenacil] next?
> 10000 nM
